Target: Recombinant Human CTLA4-Fc chimera (R&D systems) (human) (UniProt P16410)
Assay: ELISA, signal over SA
measurement.name: ELISA S/N(SA)
Answer with a bare number; do not write a unit.

Check out these entries, answers already filled in.
GGCVHPSLPILSVHFCPR (peptide, not shown: large carriers; small tags and cut ends) [C4m#19-5th4w-NN6-55-4] : 29.5
GGCFHPFLPIRSDHFCSR (peptide, not shown: large carriers; small tags and cut ends) [C4m#19-5th4w-NN6-34] : 32.2

For record GGCFHPYLPISSVHFCGR (peptide, not shown: large carriers; small tags and cut ends) [C4m#19-5th2w-NNS6-94] the listed ELISA S/N(SA) is 22.4

Notebook: GGCRHPFLPIWSVHFCWR (peptide, not shown: large carriers; small tags and cut ends) [C4m#19-5th2w-NNS6-45] , ELISA S/N(SA) read as 11

Briefly, ELISA S/N(SA) measured for GGCWHPYLPIFSVHFCPR (peptide, not shown: large carriers; small tags and cut ends) [C4m3127-4th-NNS6-16] : 16.5

// provenance: patent US20240092836A1
